Tested on: T1, Nrd1 CID M126A (S. cerevisiae, UniProt P53617 1-153, M126A)
T1 construct: source: recombinant, produced and purified as described previously (Kubicek et al, 2012)
T1 sequence (looked up): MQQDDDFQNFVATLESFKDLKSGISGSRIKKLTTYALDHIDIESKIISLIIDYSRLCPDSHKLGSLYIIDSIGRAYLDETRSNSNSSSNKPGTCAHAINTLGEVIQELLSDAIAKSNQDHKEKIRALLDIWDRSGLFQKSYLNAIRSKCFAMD
Protocol details: fluorescence polarisation; fluorescence anisotropy, equilibrium binding of Nrd1 CID variants to FAM-labelled NIM peptides; 10°C, 50 mM Na2HPO4, 100 mM NaCl, pH 8; 1:1 model with non-specific binding (DynaFit)
Measurement parameters: both partners purified
Ends that are not written are not given here. FAM = 5,6-carboxyfluorescein

- Binder: "{FAM}-DDDEDDYTPSIS (peptide, UniProt Q00416 2052-2063, looked up, Sen1, S. cerevisiae, fragment harbouring aa 2,052-2,063; source: synthetic peptide) [Sen1 NIM peptide (Sen1 aa 2,052-2,063)]"
  Kd: "1.4 µM"
